Species: Rattus norvegicus
Experiment: Open TG-GATES - Regimen: Single
Assay type: toxicity, organism-based, Sprague-Dawley
Set-up: regimen Single, gender Male, age 6 weeks
Conditions: in vivo, po, 0 mg/kg, 3 h, tissue Plasma, route gavage, dose level Control

# Compound, CRE [mg/dL]
data = [
    ("C[C@H](CS)C(=O)N1CCC[C@H]1C(=O)O [CAPTOPRIL]", 0.5),
    ("CC(=O)Oc1ccccc1C(=O)O [ASPIRIN]", 0.4),
    ("NC(=O)N1c2ccccc2C=Cc2ccccc21 [CARBAMAZEPINE]", 0.4),
    ("Cn1c(=O)c2[nH]cnc2n(C)c1=O.O [THEOPHYLLINE]", 0.2),
    ("COc1ccc(Cc2nccc3cc(OC)c(OC)cc23)cc1OC [PAPAVERINE]", 0.1),
    ("CSc1ccc2c(c1)N(CCC1CCCCN1C)c1ccccc1S2 (stereo unspecified) [THIORIDAZINE]", 0.5),
]

###

Organism: Rattus norvegicus
Experiment: Open TG-GATES - Regimen: Single
Assay type: toxicity, organism-based, Sprague-Dawley
Set-up: regimen Single, gender Male, age 6 weeks
Conditions: in vivo, po, 300 mg/kg, 9 h, tissue Kidney, route gavage, dose level Middle
Listing of entries alongside the reported KIDNEY_TOTAL.
Measured Attribute: KIDNEY_TOTAL (g)

# Compound, Unit Tag, Endpoint Result
records = [
    ("O=C(O)c1cn(C2CC2)c2cc(N3CCNCC3)c(F)cc2c1=O", "g", 1.7),
    ("Clc1ccccc1CN1CCc2sccc2C1", "g", 1.9),
    ("CCc1cc(C(N)=S)ccn1 [ETHIONAMIDE]", "g", 1.9),
    ("O=C(O)c1cc(/N=N/c2ccc(S(=O)(=O)Nc3ccccn3)cc2)ccc1O", "g", 1.8),
    ("C[C@H](CS)C(=O)N1CCC[C@H]1C(=O)O", "g", 2),
]

###

Listing of entries alongside the reported MCHC.
Species: Rattus norvegicus
Assay: Open TG-GATES - Regimen: Single
Format: toxicity, organism-based, Sprague-Dawley
Parameters: regimen Single, gender Male, age 6 weeks
Conditions: in vivo, po, 1000 mg/kg, 3 h, tissue Blood, route gavage, dose level High
Measured Attribute: MCHC (%)

# Compound, Measured Attribute, Endpoint Result
rows = [
    ("C[C@H](CS)C(=O)N1CCC[C@H]1C(=O)O", "MCHC", 33.1),
    ("O=C(O)c1cn(C2CC2)c2cc(N3CCNCC3)c(F)cc2c1=O", "MCHC", 33.1),
    ("O=C(O)c1cc(/N=N/c2ccc(S(=O)(=O)Nc3ccccn3)cc2)ccc1O", "MCHC", 33.9),
    ("CCc1cc(C(N)=S)ccn1 [ETHIONAMIDE]", "MCHC", 33.8),
    ("Clc1ccccc1CN1CCc2sccc2C1", "MCHC", 35.3),
]

###

Species: Rattus norvegicus
Assay: Open TG-GATES - Regimen: Single
Assay type: toxicity, organism-based, Sprague-Dawley
Design: regimen Single, gender Male, age 6 weeks
Settings: in vivo, po, 100 mg/kg, 9 h, tissue Kidney, route gavage, dose level Low
Listing of entries alongside the reported KIDNEY_TOTAL.
Measured Attribute: KIDNEY_TOTAL (g)

# Compound, Measured Attribute, Unit Tag, Endpoint Result
measured = [
    ("CCc1cc(C(N)=S)ccn1 [ETHIONAMIDE]", "KIDNEY_TOTAL", "g", 2),
    ("O=C(O)c1cn(C2CC2)c2cc(N3CCNCC3)c(F)cc2c1=O", "KIDNEY_TOTAL", "g", 1.8),
    ("Clc1ccccc1CN1CCc2sccc2C1", "KIDNEY_TOTAL", "g", 1.9),
    ("C[C@H](CS)C(=O)N1CCC[C@H]1C(=O)O", "KIDNEY_TOTAL", "g", 2),
    ("O=C(O)c1cc(/N=N/c2ccc(S(=O)(=O)Nc3ccccn3)cc2)ccc1O", "KIDNEY_TOTAL", "g", 2),
]

# credit: ChEMBL document CHEMBL3885861
